Consider the following compounds; for each one, report its cell viability.
- Test system: NOMO1
- Protocol Summary: cell viability relative to DMSO control; higher = less cytotoxic
- Condition Info: HPLM + 10% dialyzed FBS; 48 h; 0.000781 µM
Express the result in % but write the number alone.

Quote cell viability reported for CC(=O)OCC(=O)[C@@]12OC(C)(C)O[C@@H]1C[C@H]3[C@@H]4C[C@H](F)C/5=C/C(=O)/C=C\[C@]5(C)[C@@]4(F)[C@@H](O)C[C@]23C please. 120

Give the reported value of cell viability for this record: OC1=CC2=C(C(=O)\C=C(/O2)C3=CC=CC=C3)C(=C1O)O 93.6

Please report cell viability for the following compound: COc1nccc(-c2c(-c3ccc(F)cc3)ncn2C2CCC(O)CC2)n1 (centres undefined) 120

Provide only the value of recorded cell viability for O=C(NCCO[N+](=O)[O-])c1cccnc1 112

Specify cell viability for O=C(Nc1ccc([N+](=O)[O-])cc1Cl)c1cc(Cl)ccc1O and stop. 103

Output cell viability of Cc1cccc(N(C)C(=S)Oc2ccc3ccccc3c2)c1 110

Name the recorded cell viability of the item COc1cc(NC(=O)c2ccc(-c3ccc(Cl)cc3)o2)cc(OC)c1 in your answer. 95.5

Give reported cell viability value for CC(C)(C)Cn1c(N)nc2ccc(-c3[nH]c(C(C)(C)C)nc3-c3ccc(F)cc3)nc21 84.9

Query cell viability for CN(CCOc1ccc(NS(C)(=O)=O)cc1)CCc1ccc(NS(C)(=O)=O)cc1 108

Item OCCNC1CCCc2c1[nH]c1ccc(-c3ccccc3)cc21 (centres undefined) : provide cell viability 81.8

For C[C@@H](NCc1cc2ccccc2[nH]1)c1cccc2ccccc12 , write its cell viability. 88.3

Identify the reported cell viability for the following entry. O=C(NCCCNc1nc(Nc2cccc(NC(=O)N3CCCC3)c2)ncc1I)c1cccs1 81.8

Specify reported cell viability for the compound shown: O=C(O)[C@@H](c1ccc(OCc2ccc3ccccc3n2)cc1)C1CCCC1 118

Tell me measured cell viability for CCCCCCCCOc1ccccc1C(=O)Nc1ccc(C(=O)OCC[N+](C)(CC)CC)cc1 please. 101

Identify measured cell viability associated with C[N]1N=CC2=C1C=C(C(=C2)OC3=CC=C(NC(=O)\C4=C\C=C(\C)N(C4=O)C5=CC=C(F)C=C5)C=C3F)C6=C[NH]N=C6 107

Answer with the recorded cell viability of COc1ccc(C(=O)CC(=O)c2ccc(C(C)(C)C)cc2)cc1 only. 78.3

State, in one line, measured cell viability of COC/1=C/[C@@H]2[C@@H]3CC4=C(C(=C(OC)C=C4)O)[C@]2(CCN3C)CC1=O 117

Output measured cell viability for this item: COc1ccccc1OCCNCC(O)COc1cccc2[nH]c3ccccc3c12 (centres undefined) 132

Give the reported value of cell viability for this record: C[C@]12CC[C@@H]3c4ccc(O)cc4CC[C@H]3[C@@H]1CC[C@@H]2O 124

----------
- Tested on: NOMO1
- Protocol Summary: AUC of viability dose-response curve (% viability x log10 dose units); higher = less sensitive
- Condition Info: RPMI 5 mM glucose + 10% dialyzed FBS; 48 h
Rule for this label: 1 means AUC of viability dose-response curve is less than 400; 0 means AUC of viability dose-response curve is at least 400.

AUC of viability dose-response curve strictly < 400 for this molecule? Cc1cc(-c2nnc3n2CCCCC3)c(C)n1-c1ccccc1 0

State whether 400 exceeds AUC of viability dose-response curve recorded for O=C(O)CSCC(=O)NC1CCSC1=O (centres undefined) . 0

Lab note: confirm whether the reported AUC of viability dose-response curve for this molecule is below 400, equality not counting. molecule: NC(=O)c1cnc(-c2ccc(C3(N)CCC3)cc2)c(-c2ccccc2)c1 0

In the record for COc1cccc2c(NCc3ccccc3)nc(-n3c(N)nc4ccccc43)nc12 , is AUC of viability dose-response curve less than 400? 0

Dear colleague, could you confirm whether AUC of viability dose-response curve of C/C(=C\c1csc(C)n1)[C@@H]1C[C@@H]2O[C@@H]2CCC[C@H](C)[C@H](O)[C@@H](C)C(=O)C(C)(C)[C@@H](O)CC(=O)O1 falls below 400? Thanks. 1

Is it true that AUC of viability dose-response curve reported for COc1ccc(CC2c3cc(OC)c(OC)cc3CC[N+]2(C)CCC(=O)OCCCCCOC(=O)CC[N+]2(C)CCc3cc(OC)c(OC)cc3C2Cc2ccc(OC)c(OC)c2)cc1OC (centres undefined) is less than 400? 1

Regarding Cc1cccc(N(C)C(=S)Oc2ccc3ccccc3c2)c1 , kindly confirm whether its AUC of viability dose-response curve is beneath 400. 0

API: query returns whether the molecule falls strictly under 400 in AUC of viability dose-response curve. Query: CC1(C)Cc2c(sc(NC(=S)NC(=O)c3ccccc3)c2C(=O)O)CO1 0

Confirm or reject: AUC of viability dose-response curve of COc1cc(Nc2ncc(F)c(Nc3ccc4c(n3)N(COP(=O)(O)O)C(=O)C(C)(C)O4)n2)cc(OC)c1OC lies strictly below 400 0

AUC of viability dose-response curve strictly < 400 for this molecule? Clc1ccccc1C(c1ccccc1)(c1ccccc1)n1cccn1 0

Strictly below 400: is that where AUC of viability dose-response curve of O=P1(N(CCCl)CCCl)NCCCO1 (centres undefined) sits? 0

Is it true that AUC of viability dose-response curve reported for N#CC1(c2ccc(NC(=O)c3cccnc3NCc3ccncc3)cc2)CCCC1 is less than 400? 0

hey, is AUC of viability dose-response curve for CCCOc1ccc2[nH]c(NC(=O)OC)nc2c1 lower than 400 or not? 1

Quick check: does C[C@H]1[C@H](O)O[C@@H]2O[C@@]3(C)CC[C@H]4[C@H](C)CC[C@@H]1[C@@]24OO3 have AUC of viability dose-response curve under 400? 1

Say whether its AUC of viability dose-response curve is strictly beneath 400. Entry: CNC(=O)c1ccc(N2C(=S)N(c3ccc(C#N)c(C(F)(F)F)c3)C(=O)C2(C)C)cc1F 0

Dear reviewer, please state whether NCCCCCC(=O)O has AUC of viability dose-response curve strictly beneath 400. 0

Is AUC of viability dose-response curve of C=CCc1cc(OC)c(O)c(C(=O)NCCO)c1 strictly below 400? 0

Would you kindly verify if AUC of viability dose-response curve of O=C(O)[C@@H](c1ccc(OCc2ccc3ccccc3n2)cc1)C1CCCC1 is strictly less than 400? 0

----------
- System: P12-Ichikawa
- Protocol Summary: cell viability relative to DMSO control; higher = less cytotoxic
- Condition Info: HPLM + 10% dialyzed FBS; 48 h; 0.00702 µM
Please respond with reported cell viability for every item in the list.
Number in %, nothing else.

Return reported cell viability. Input molecule: CC[C@H](NC(C)C)[C@H](O)c1ccc(O)c2[nH]c(=O)ccc12 102

Supply reported cell viability belonging to this molecule: C[N+](C)(C)CC(=O)O.[Cl-] 93

Respond only with cell viability recorded for COc1ccc(C(=O)CC(=O)c2ccc(C(C)(C)C)cc2)cc1 113

Hello, please tell me recorded cell viability for this one: O=[S+]([O-])(/N=C/c1c(O)ccc2ccccc12)c1cccs1 116

# return recorded cell viability for entry CCCOc1ccc2[nH]c(NC(=O)OC)nc2c1 107

Identify cell viability associated with the molecule O=[S+]([O-])(CCSSCC[S+](=O)([O-])[O][Na])[O][Na] 114

----------
- System: P12-Ichikawa
- Protocol Summary: AUC of viability dose-response curve (% viability x log10 dose units); higher = less sensitive
- Condition Info: RPMI 5 mM glucose + 10% FBS; 48 h
Assay Readout: AUC of viability dose-response curve

Please give measured AUC of viability dose-response curve of the following entry: NC/1=N/C(=O)N(C[C@@H](CO)OC[P](O)(O)=O)/C=C1 443

Return the recorded AUC of viability dose-response curve value; entry: C=CC(=O)Nc1cccc(Oc2nc(Nc3ccc(N4CCN(C)CC4)cc3OC)ncc2Cl)c1 351

Answer with reported AUC of viability dose-response curve of NC1CCC(Nc2nc(Nc3ccc(C(=O)N4CCCCC4)cc3)c3ncn(-c4cccc(F)c4)c3n2)CC1 (centres undefined) 459

Check the records and state AUC of viability dose-response curve for Cc1ccc(NC(=O)c2cccc(N(C)C)c2)cc1NC(=O)c1ccc(O)cc1 461

State its AUC of viability dose-response curve: O=C(c1ccc(/C=C/c2n[nH]c3ccccc23)cc1)N1CCNCC1 331

Output measured AUC of viability dose-response curve for this item: O=[S+]([O-])(/N=C/c1c(O)ccc2ccccc12)c1cccs1 465

Report AUC of viability dose-response curve for COC(=O)Nc1ccc(-c2nc(N3CCOCC3)c3cnn(C4CCN(Cc5cccnc5)CC4)c3n2)cc1 323

Retrieve AUC of viability dose-response curve measured for COc1cc(Nc2ncc(F)c(Nc3ccc4c(n3)N(COP(=O)(O)O)C(=O)C(C)(C)O4)n2)cc(OC)c1OC and print it. 456

Fill in AUC of viability dose-response curve for record CCCCCCCCOc1ccccc1C(=O)Nc1ccc(C(=O)OCC[N+](C)(CC)CC)cc1 444
